- System: UACC-257 (Melanoma)
- ASSAY_TEXT: combination Emax (second highest fraction inhibited in the dose matrix, 72 h); higher = more inhibition; extreme values may be limits of the assay
MEASURED_ATTRIBUTE: combination Emax
Note: the reply should be a number with no unit written.

// query Give reported combination Emax value for COc1cccc2c1C(=O)c1c(O)c3c(c(O)c1C2=O)C[C@@](O)(C(=O)CO)C[C@@H]3O[C@H]1C[C@H](N)[C@H](O)[C@H](C)O1 [Doxorubicin] + Cc1cc2ncnn2cc1Nc1ncc2c(n1)n(C1CCOCC1)c(=O)n2C [AZD7648] (first compound max 1 µM, 7x7, partner max 10 µM)
// result 0.431

// query Give reported combination Emax value for CC(=O)c1c(C)c2cnc(Nc3ccc(N4CCNCC4)cn3)nc2n(C2CCCC2)c1=O [Palbociclib] + CC1(C)CCC(CN2CCN(c3ccc(C(=O)NS(=O)(=O)c4ccc(NCC5CCOCC5)c([N+](=O)[O-])c4)c(Oc4cnc5[nH]ccc5c4)c3)CC2)=C(c2ccc(Cl)cc2)C1 [Venetoclax] (first compound max 10 µM, 7x7, partner max 1 µM)
// result 0.057

// query Give reported combination Emax value for Cn1cnc2c(F)c(Nc3ccc(Br)cc3Cl)c(C(=O)NOCCO)cc21 [Selumetinib] + CCN(CCO)CCCOc1ccc2c(Nc3cc(CC(=O)Nc4cccc(F)c4)[nH]n3)ncnc2c1 [AZD2811] (first compound max 10 µM, 7x7, partner max 1 µM)
// result 0.68

These data points were gathered from the supplement of paper PMC11061612.
